TEST SUMMARY: Mammalian cell cytotoxicity assay (PrestoBlue cell viability, 72 hours)
Type: cell-based
CONDITION SUMMARY: human, A549, MIA PaCa-2, PANC-1, one range for the lines, read-out: cytotoxicity IC50 against human lung and pancreatic carcinoma cell lines
MEASURE: IC50 at 72 h

Entry under test: CC(N)C(O)CCCCCCCCCCCCCCCCCCC(O)C(C)OC1OC(CO)C(O)C(O)C1O (stereo not shown) [hypoculoside, Hypoculoside] . Its IC50 at 72 h was 9 to 14 µM

----------
Test system: Saccharomyces cerevisiae diploid wild-type strain (BY4743)
TEST SUMMARY: Growth inhibition of wild type Saccharomyces cerevisiae in YPD medium (96-well, OD600)
Assay type: cell-based
CONDITION SUMMARY: Saccharomyces cerevisiae, read-out: IC50 for growth of Saccharomyces cerevisiae cells
MEASURE: pIC50
Numbers only, as −log10 of the molar value.

Entry under test: CC(N)C(O)CCCCCCCCCCCCCCCCCCC(O)C(C)OC1OC(CO)C(O)C(O)C1O (stereo not shown) [hypoculoside, Hypoculoside] . Its pIC50 was 5.14

These measurements were taken from paper PMC6345779.
